assay: yeast display, Sf9 membrane polyspecificity reagent, FACS + sequencing; frameworks hold sequencing errors
assay-endpoint: polyreactivity (PSR sort gate)

monomer-sequence: QVQLLESGGGLDQSGGSLRLSCAASGRIFTFNAMGWYRQAPGQERELVAAIRFRDGSTYYADSVKGRFTISRDNAKNNGYLQMYSLKPEDTAVYYSAATAYPWPYYYWGQGTQVTVSS
val: high polyreactivity
//
monomer-sequence: QVQLVESGGGLVQAGGRLRLSCAASGRTFFRYVMGWYRQAPGKERELVAAISRSGGSTYYADSVKGRFTISRDNAKNTVYLQMNSLKPEATAVFYCNTVARSTVVPTEFDYWGQGTQVTVSS
val: high polyreactivity
//
monomer-sequence: QVQLVESGGGLVQAGGSLRLSCAASGSTFYRNAMGWYRQAPGKERELVAGISWRGGSTYYADSVKGRFTISRDNAKNTVYLQMNSLKPEDTAVYYCNTLGAGGYSSPADYYYWGQGTQVTVSS
val: high polyreactivity
